B1: glmS ribozyme (parent)
chain: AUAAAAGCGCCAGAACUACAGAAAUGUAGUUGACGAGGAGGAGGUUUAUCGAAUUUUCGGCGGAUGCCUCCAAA

- Variants of: B1
- protocol: kcat; higher = faster cleavage; RNA array
- condition.set: with glucosamine-6-phosphate
This sample holds only a part of the variants without activity.

{"columns": ["residue.string", "unit.name", "relation.operator", "kcat"],
 "data": [
  ["AUAAAAGCGCCAGAACUACAGAAAUGUAGUUGACGAGGAGGAGGUUUAUCGAAUUUCCGGCGGAUGUCUCCAAA [U57C C67U]", "s⁻¹", "=", "6.51e-05"],
  ["AUAAAAGCGCCAGAACUACAGAAAUGUAGUUGACGAGGAGGAGGUGUAUCGAAUUUUCGGCGGCUGCCUCCAAA [U46G A64C]", "s⁻¹", "=", "1.9e-05"],
  ["AUAAAAGCGCCAGAACUACAGAAAUGUAGUUGACGAGGAGGAGGGUUAUCGAACUUUCGGCGGAUGCCUCCAAA [U45G U54C]", "s⁻¹", "=", 0.0089],
  ["AUAAAAGCGCCAGAACUACAGAAAUGUAGUUGACGAGGAAGAGGUAUAUCGAAUUUUCGGCGGAUGCCUCCAAA [G40A U46A]", "s⁻¹", "=", 0.00064],
  ["AUAAAAGCGCCAGAACUACAGAAAUGUAGUUGACGAGGAGGACGUUUAUCGAAUUUUCGGCGGAUGGCUCCAAA [G43C C67G]", "s⁻¹", "=", 0.000698],
  ["AUAAAAGCGCCAGUACUACAGAAAUGUAGUUGACGAGAAGGAGGUUUAUCGAAUUUUCGGCGGAUGCCUCCAAA [A14U G38A]", "s⁻¹", "<", "1e-05"],
  ["AUAAAAGCGCCAGAACUACAGAAAUGUAGUUGACGAGGAGGAGGUUUAUCGAACCUUCGGCGGAUGCCUCCAAA [U54C U55C]", "s⁻¹", "=", 0.014],
  ["AUAAAAGCGCCAGAACUACAGAAAUGUAGUUGACGAGGAGGAGGUUUUUCGAAUUUUCGGCGGAUGUCUCCAAA [A48U C67U]", "s⁻¹", "=", 0.00022],
  ["AUAAAAGCGCCAGAACUACAGAAAUGUAGUCGACGAGGAGGAGGUUUAUCGAAUUUUCGGCGGAUGCCGCCAAA [U31C U69G]", "s⁻¹", "=", "3.99e-05"],
  ["AUAAAAGCGCCAGAACUACAGAAAUGUAGUUGGCAAAGAGGAGGUUUAUCGAAUUUUCGGCGGAUGCCUCUAAA [A33G G35A G37A C71U]", "s⁻¹", "=", "1.55e-05"],
  ["AUAAAAGCGCCAGAACUACAGAAAUGUAGUUGACGAGUAGGAGGUUUGUCGAAUUUUCGGCGGAUGCCUCCAAA [G38U A48G]", "s⁻¹", "<", "1e-05"],
  ["AUAAAAGCGCCAUAACUACAGAAAUGUAGUUGACGAGGAGGAGGUUUAUCGAAUUUUCGGCGGAUGCCUCCAAA [G13U]", "s⁻¹", "=", 0.00254],
  ["AUAAAAGCGCCAGCACUACAGAAAUGUAGUUGACGAGGAGGAGGUUUAUCGAAUUUUCGGCGGAGGCCUCCAAA [A14C U65G]", "s⁻¹", "=", 0.00175],
  ["AUAAAAGCGCCAGAACUACAGAAAUGUAGUUGACGAGGAGGAGGUUUAUCGAAUUUUCGGCGGAUGUCACCAAA [C67U U69A]", "s⁻¹", "=", "4.62e-05"],
  ["AUAAAAGCGCCAGUACUACAGAAAUGUAGUUGACGAGGAGGAGGUUUAUCGAAUUUUCGGCGGAUGCCUCUAAA [A14U C71U]", "s⁻¹", "=", 0.00742],
  ["AUAAAAGCGCCAGAACUACAGAAAUGUAGUUGACGAGGAGGAGGUUAAUCGAAUUUUCAGCGGAUGCCUCCAAA [U47A G59A]", "s⁻¹", "=", "8.22e-05"],
  ["AUAAAAGCGCCAGAACUACAGAAAUGUAGUUGUCGAGGAGGAGGUUUAUCAAAUUUUCGGCGGAUGCCUCCAAA [A33U G51A]", "s⁻¹", "<", "1e-05"],
  ["AUAAAAGCGCCAGAAGUACAGAAAUGUAGUUGACGAGGAGGAGGUGUAUCGAAUUUUCGGCGGAUGCCUCCAAA [C16G U46G]", "s⁻¹", "=", 0.000671],
  ["AUAAAAGCGCCGGAACUACAGAAAUGUAGUUGACGAGGAGGAGGUUUAUCGAAUUUUCGGCGGAUGCCUCAAAA [A12G C71A]", "s⁻¹", "=", 0.000639],
  ["AUAAAAGCGCCAGAACUACAGAAAUGUAGUUGACGAGGAGGAGGUUUGUCGAAUUUUCGGCGGAUGACUCCAAA [A48G C67A]", "s⁻¹", "=", "7.17e-05"],
  ["AUAAAAGCGCCAGAACUACAGAAAUGUAGUUGACGAGGAGGAGGUUUAUCGAAUUUUCGGCGGAUGGCUCGAAA [C67G C71G]", "s⁻¹", "=", "1.33e-05"],
  ["AUAAAAGCGCCAGGACUACAGAAAUGUAGUUGACGAGGAGGAGGUUUAGCGAAUUUUCGGCGGAUGCCUCCAAA [A14G U49G]", "s⁻¹", "=", 0.00278],
  ["AUAAACGCGCCCGAACUACAGAAAUGUAGUUGACGAGGAGGAGGUUUAUCGAAUUUGCGGCGGAUGCCUCCAAA [A6C A12C U57G]", "s⁻¹", "=", "1.28e-05"],
  ["AUAAAAGCGUCAGAACUACAGAAAUGUAGUUGUCGAGGAGGAGGUUUAUCGAACUUUCGGCGGAUGCCUCCAAA [C10U A33U U54C]", "s⁻¹", "=", "4.81e-05"],
  ["AUAAAAGCGCCAGAACUACAGAAAUGUAUUUGACGAGGAGGAGGUUUAUCGAAUUUUCCGCGGAUGCCUCCAAA [G29U G59C]", "s⁻¹", "<", "1e-05"],
  ["AUAAAAGCGCCAGAACUACAGAAAUGUACUUGACGAGGAGGAGGUUUAUCGAAUUUUCGGCGGAAGCCUCCAAA [G29C U65A]", "s⁻¹", "=", 0.000197],
  ["AUAAAAGCGCCAGAACUACAGAAAUGUAGUAGACGAGGAGGAGGUUGAUCGAAUUUUCGGCGGAUGCCUCCAAA [U31A U47G]", "s⁻¹", "=", 0.00294],
  ["AUAAAAGCGCCAGACAUACAGAAAUGUAGUUGACGAUGAGGAGGUUUAUCGAAUUUUCGGCGGAUGCCUUGAAA [A15C C16A G37U C70U C71G]", "s⁻¹", "=", "1.25e-05"],
  ["AUAAAAGCGCCAGAACUACAGAAAUGUAGUUGACGAGGUGGAGGUUUAUCGAAUUUUCGGCGGAUGCCUCAAAA [A39U C71A]", "s⁻¹", "=", 0.00326],
  ["AUAAAAGCGCCAGAACUACAGAAAUGUAGUUGACGAGGAGGAGGUUUAUCGAAUUUUCGGCGGACGUCUCCAAA [U65C C67U]", "s⁻¹", "=", 0.000111],
  ["AUAAAAGCGCCAGAACUACAGAAAUGUAGUUGACGAGGAGCAGGUUUAUCGAAUAUUCGGCGGAUGCCUCCAAA [G41C U55A]", "s⁻¹", "=", "8.46e-05"],
  ["AUAAAAGCGCCGGAACUACAGAAAUGUAGUUGACGAGGAGGAGGUUUAUCGAUUUUUCGGCGGAUGUCUCCAAA [A12G A53U C67U]", "s⁻¹", "=", 0.000372],
  ["AUAAAAGCGCCAGAACUACAGAAAUGUAGUUGACGAGGAGGAGGUUUAUCGAAUUUUCGGCGGAUGCCUUGAAA [C70U C71G]", "s⁻¹", "=", 0.000124],
  ["AUAAAAGCGCCUGAACUACAGAAAUGUAGUUGACGAGGAGGAGGUUUAUCGUAUUUUCGGCGGAUGCCUCCAAA [A12U A52U]", "s⁻¹", "=", 0.00174],
  ["AUAAAAGCGCCAGAAAUACAGAAAUGUAGUUGAUGAGGAGGAGGUUUAUCGAAUUUUCGGCGGAUGCCUCUAAA [C16A C34U C71U]", "s⁻¹", "=", "1.28e-05"],
  ["AUAAAAGCGCCAGAACUACAGAAAUGUAGUUGACGAGGAGGAGGUUUAUCGGAUUUUCGGCGGAUGCCUCCAAA [A52G]", "s⁻¹", "=", 0.00319],
  ["AUAAAAGCGCCAGAACUACAGAAAUGUAGUUGACGAGGAGGGGGUUUCUCGAAUUUUCGGCGGAUGCCUCCAAA [A42G A48C]", "s⁻¹", "=", 0.00074],
  ["AUAAAAGCGCCAGAACUACAGAAAUGUAGUUGACGAGGAGGAGGUUUAUCGAAUUUUCGGCGGAUUCAUCCAAA [G66U C68A]", "s⁻¹", "=", "6.39e-05"],
  ["AUAAAAGCGCCAGAACUACAGAAAUGUAGUUGACGAGGAGGAGGUUGAUCGAAUUUUCGGCGGAUGCAUCCAAA [U47G C68A]", "s⁻¹", "=", "6.42e-05"],
  ["AUAAAAGCGCCAGAACUACAGAAAUGUAGUUGACGAGGAGGAGGUUUAUGGAAUUUUCUGCGGAUGCGUCCAAA [C50G G59U C68G]", "s⁻¹", "=", "8.8e-05"],
  ["AUAAAAGCGCCAGAACUACAGAAAUGUAGGUGACGAGGAGGAGGUUUAUCGAAAUUUCGGCGGAUGCCUCCAAA [U30G U54A]", "s⁻¹", "=", 0.0115]
]}

Entry source: the supplement of paper PMC7125110
